Biological target: Amine oxidase [flavin-containing] B (Rattus norvegicus)
Sequence (P19643 whole entry): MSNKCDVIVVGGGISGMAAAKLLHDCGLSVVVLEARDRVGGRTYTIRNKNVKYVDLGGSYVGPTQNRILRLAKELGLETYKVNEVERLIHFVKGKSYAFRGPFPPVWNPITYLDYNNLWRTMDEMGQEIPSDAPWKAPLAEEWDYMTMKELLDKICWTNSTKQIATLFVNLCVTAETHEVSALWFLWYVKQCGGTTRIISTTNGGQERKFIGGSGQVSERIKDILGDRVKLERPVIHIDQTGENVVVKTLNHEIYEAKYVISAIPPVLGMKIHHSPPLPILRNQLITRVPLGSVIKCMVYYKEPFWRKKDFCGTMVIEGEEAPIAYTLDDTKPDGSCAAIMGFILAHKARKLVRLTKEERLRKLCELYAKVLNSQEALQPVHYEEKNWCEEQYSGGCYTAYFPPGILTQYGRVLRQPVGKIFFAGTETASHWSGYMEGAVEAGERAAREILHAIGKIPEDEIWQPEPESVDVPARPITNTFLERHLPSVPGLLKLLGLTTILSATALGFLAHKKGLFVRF
Experiment: Competitive inhibition of Rat liver Monoamine Oxidase B at 37 degree C (pH= 7.4)
MEASURED METRIC: Ki
The reply should consist of the numeric value with the unit placed after it.

Some entries whose results are on file:
>  <CHEM SMILES>
CN[C@@H](C)Cc1ccccc1

>  <Ki>
270 µM

$$$$
>  <CHEM SMILES>
C[C@@H](N)Cc1ccccc1

>  <Ki>
180 µM

$$$$
>  <CHEM SMILES>
CN[C@H](C)Cc1ccccc1

>  <Ki>
550 µM

$$$$

"C[C@H](N)Cc1ccccc1" yielded Ki of 160 µM
